Assay: Dissociation constant, pKa was determined
Type: physicochemical
Attribute Measured: pKa
// print number alone

Below, each entry is followed by its recorded pKa result.
- Molecule: "CC(Cc1c[nH]c2ccccc12)(NC(=O)OC1C2CC3CC(C2)CC1C3)C(=O)NC[C@H](NC(=O)CCC(=O)Nc1nn[nH]n1)c1ccccc1 (single isomer, unassigned)"
  pKa: 5.2
- Molecule: "CC(Cc1c[nH]c2ccccc12)(NC(=O)OC1C2CC3CC(C2)CC1C3)C(=O)NC[C@H](NC(=O)CCNS(=O)(=O)C(F)(F)F)c1ccccc1 (single isomer, unassigned)"
  pKa: 7.9
- Molecule: "CC(Cc1c[nH]c2ccccc12)(NC(=O)OC1C2CC3CC(C2)CC1C3)C(=O)NC[C@H](NC(=O)CCc1nnn[nH]1)c1ccccc1 (single isomer, unassigned)"
  pKa: 5.4

Now take the following molecule into account.
Request: Identify the reported pKa for the following entry. C[C@@](Cc1c[nH]c2ccccc12)(NC(=O)OC1C2CC3CC(C2)CC1C3)C(=O)NC[C@H](NC(=O)CCC(=O)O)c1ccccc1 (stereo partly specified)
Response: 5.6
